# tgt: T1, soluble mouse BLyS (mouse, UniProt Q9WU72 127-309)
# T1 construct: europium-labelled in DELFIA; also called mBLyS; mouse BAFF (BLyS)
# assay_text: Biacore T100, binder captured by anti-human Fc, BLyS injected, 1:1 model
Listing: kon of selected binders
Supply the numeric figure in M⁻¹ s⁻¹, leaving out any unit text.

human TACI (R&D Systems receptor chimera) (receptor, UniProt O14836 2-166, looked up, not shown: a dimerising Fc or GST, also called hTACI; TACI rec Human) SGLGRSRRGGRSRVDQEERFPQGLWTGVAMRSCPEEQYWDPLLGTCMSCKTICNHQSQRTCAAFCRSLSCRKEQGKFYDHLLRDCISCASICGQHPKQCAYFCENKLRSPVNLPPELRRQRSGEVENNSDNSGRYQGLEHRGSEASPALPGLKLSADQVALVYST | 621000

Could you now look at the following binder, please?
Problem: Look up kon: 5G10 IgG1 F243A/V264A double mutein expressed in Pichia pastoris (antibody, V domains shown, IgG1 F243A/V264A (EU) double mutein, alpha-2,6-sialylated, from glycoengineered Pichia pastoris; also called 5G10 (D132947)) VH: QMQLVQSGAEVKKPGASVKVSCKASGYTFTSYAMHWVRQAPGQRLEWMGWINAGNGNTKYSQKFQGRVTITRDTSASTAYMELSSLRSEDTAVYYCAREMAVAGTYYYYGMDVWGQGTTVTVSS VL: DIQLTQSPSTLSASVGDRVTITCRASQSISGWLAWYQQKPGRAPKLLIYKASSLESGVPSRFSGSGSGTDFTLTISSLQPEDIATYYCQQFDNLLLMYTFGQGTKLEIRR
Result: 616000
